# target desc: UniProtKB Q9NYK1
# Sequence (Q9NYK1 27-1049): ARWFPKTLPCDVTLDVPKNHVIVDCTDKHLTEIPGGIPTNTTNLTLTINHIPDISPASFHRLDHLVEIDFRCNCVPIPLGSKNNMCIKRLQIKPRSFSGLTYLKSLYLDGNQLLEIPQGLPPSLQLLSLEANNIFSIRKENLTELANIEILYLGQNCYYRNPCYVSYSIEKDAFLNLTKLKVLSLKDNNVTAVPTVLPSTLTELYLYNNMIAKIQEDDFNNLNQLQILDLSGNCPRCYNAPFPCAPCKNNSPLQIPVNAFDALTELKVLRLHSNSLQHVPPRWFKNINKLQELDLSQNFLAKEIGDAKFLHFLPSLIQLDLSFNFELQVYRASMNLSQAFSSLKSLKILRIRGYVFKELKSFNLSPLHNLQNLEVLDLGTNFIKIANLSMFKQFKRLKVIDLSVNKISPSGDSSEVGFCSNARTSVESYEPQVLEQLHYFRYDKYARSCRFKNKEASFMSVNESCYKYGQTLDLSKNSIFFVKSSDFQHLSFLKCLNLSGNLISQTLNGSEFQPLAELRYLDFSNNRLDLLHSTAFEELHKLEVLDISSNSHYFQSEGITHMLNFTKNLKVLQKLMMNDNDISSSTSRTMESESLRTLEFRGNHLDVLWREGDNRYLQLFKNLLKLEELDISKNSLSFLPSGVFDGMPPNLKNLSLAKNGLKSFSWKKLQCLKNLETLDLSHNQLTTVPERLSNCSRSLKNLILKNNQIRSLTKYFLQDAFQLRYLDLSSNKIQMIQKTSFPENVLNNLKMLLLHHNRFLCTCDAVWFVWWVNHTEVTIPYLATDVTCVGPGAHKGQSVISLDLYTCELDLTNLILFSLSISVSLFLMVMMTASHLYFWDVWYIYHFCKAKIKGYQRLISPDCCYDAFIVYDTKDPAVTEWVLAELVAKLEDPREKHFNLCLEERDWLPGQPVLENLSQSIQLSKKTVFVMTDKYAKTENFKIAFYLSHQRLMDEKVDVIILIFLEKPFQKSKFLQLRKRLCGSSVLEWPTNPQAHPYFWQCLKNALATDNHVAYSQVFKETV
# experiment notes: HEK293-Blue-hTLR-7 cells assay (SEAP reporter, R848 stimulation)
# Format: cell-based
# measurement parameters: HEK293-Blue-hTLR7 cells, R848 ligand, 20 hrs incubation
What log10 IC50 was measured for each of the following?
Log scale reminder: IC50 in nM, then log10 taken.

q: Quick one: log10 IC50 for `N#Cc1ccc(N2C[C@H](CN3CCC4(CCCNC4)CC3)[C@@H](C(F)(F)F)C2)c2nccnc12` ?
a: 1.69

q: Could you tell me which log10 IC50 is on file for C[C@H]1CN(c2ccc(C#N)c3nccnc23)C[C@@H]1CN1CCC2(CCNC2)C1 (some centres unmarked) ?
a: 2.58

q: Suppose we examine the compound N#Cc1ccc(N2C[C@H](CN3CC4CNCC4C3)[C@@H](C(F)(F)F)C2)c2nccnc12 (some centres unmarked) ; what log10 IC50 value has been reported?
a: 1.32

q: What value of log10 IC50 has been recorded for this entry: `CN(C)C1CCN(C[C@H]2CN(c3ccc(C#N)c4nccnc34)C[C@@H]2C(F)(F)F)CC1`
a: 1.15

q: Which log10 IC50 is reported for this compound? C[C@@H]1CN(c2ccc(C(F)(F)F)c3nccnc23)C[C@H]1CN1CCC(N2CCCCC2)CC1 (relative stereo)
a: 2.64

q: Would you kindly share the measured log10 IC50 for `N#Cc1ccc(N2C[C@H](CN3CCC4(CC3)CNCCO4)[C@@H](C(F)(F)F)C2)c2nccnc12` ?
a: 1.08

q: Name the reported log10 IC50 value associated with the compound N#Cc1ccc(N2CC(CN3CC4(CCCNC4)C3)C3(CC3)C2)c2nccnc12 (centres unmarked)
a: 2.47

q: For the compound CC1(N)CCN(CC2CN(c3ccc(C#N)c4nccnc34)CC23CC3)CC1 (centres unmarked) , what log10 IC50 is on record?
a: 1.73
